Provide the recorded max response for the entries that follow.
# method: qHTS RealTime-Glo MT Cell Viability Assay in HEK293 cells - 40 hour (AID 1224874); also: % is scaled to controls: 0 for no effect and ±100 for the full control effect; nearly all actives have a fitted effect of over 50% in size
# reported conditions: RealTime-Glo luminescence; active compounds read low
Inconclusive results are not listed. Active and inactive are the calls of the source. Calls follow the shape of the dose curve; as a rule, active = well fitted cell-killing curve with a large enough effect in the repeat runs; inconclusive = weak or mixed curves, or effect the other way; inactive = flat fitted curve, though single readings scatter.

For orientation, consider the following solved cases.
compound	max response
NC1CCCCC1	1.81% (inactive) [middle of 4 runs]
CN(C)C(=O)Nc1ccc(Cl)c(Cl)c1	-20.7% (inactive)
CN1[C@@H]2CC(OC(=O)[C@H](CO)c3ccccc3)C[C@H]1[C@@H]1O[C@@H]12 (stereo partly drawn)	0.652% (inactive) [middle of 4 runs]
CC(C)c1c(C(=O)Nc2ccccc2)c(-c2ccccc2)c(-c2ccc(F)cc2)n1CC[C@@H](O)C[C@@H](O)CC(=O)O	-21% (inactive)
O=C1NS(=O)(=O)c2ccccc21	5.75% (inactive) [middle of 5 runs]
C1=CC2C3C=CC(C3)C2C1 (stereo not drawn)	0.978% (inactive)
O=C1O[C@H]([C@@H](O)CO)C(O)=C1O	5.34% (inactive) [middle of 5 runs]

Input: Please look up its max response: NC(=O)n1c(O)c(C(=O)c2cccs2)c2cc(Cl)ccc21
Output: 3.23% (inactive)

* * *

# method: qHTS assay for small molecule agonists of the antioxidant response element (ARE) signaling pathway (AID 743202); as to activation: % is scaled to controls: 0 for no effect and ±100 for the full control effect
# reported conditions: HepG2 ARE-bla reporter, beta-lactamase FRET, 16 h; series mostly up to 73.3 µM
Records with an inconclusive call do not appear. Active and inactive are the calls of the source. The call rests on the fitted dose curve; in most records, active means well fitted activation curve with a large enough effect in the signal ratio in the repeat runs (not every such curve was filed as active); inconclusive means weak or mixed curves, or effect the other way; inactive means no such curve, though single readings can be large or run the other way; the % refers to the signal ratio.
Your answer must be one of the following: active, inactive

// known answers, use as guide
compound	assigned label
C=C1CC[C@H](O)C/C1=C\C=C1/CCC[C@]2(C)[C@@H]([C@H](C)CCCC(C)C)CC[C@@H]12	active
CCCC[P+](CCCC)(CCCC)CCCC	inactive
OC[C@H]1O[C@H](O[C@]2(CCl)O[C@H](CCl)[C@@H](O)[C@@H]2O)[C@H](O)[C@@H](O)[C@H]1Cl	inactive

Input: Please share the test call associated with O=C1NS(=O)(=O)c2ccccc21 .
Output: inactive

Input: Please share the test call associated with CC(C)c1c(C(=O)Nc2ccccc2)c(-c2ccccc2)c(-c2ccc(F)cc2)n1CC[C@@H](O)C[C@@H](O)CC(=O)O .
Output: active

Input: Please share the test call associated with NC(=O)c1cccnc1 .
Output: inactive

Input: Please share the test call associated with COc1ccc2c(c1)c(CC(=O)O)c(C)n2C(=O)c1ccc(Cl)cc1 .
Output: inactive

Input: Please share the test call associated with CN(N=O)C(=O)N[C@@H]1[C@@H](O)[C@H](O)[C@@H](CO)O[C@@H]1O .
Output: inactive

Input: Please share the test call associated with NC1CCCCC1 .
Output: inactive

* * *

# method: qHTS assay to identify small molecule agonists of the estrogen related receptor signaling pathway with the pleiotropic PPARgamma coactivator (PGC) from Tox21 10K library (AID 1224842); also: % is scaled to controls: 0 for no effect and ±100 for the full control effect; nearly all actives have a fitted effect of over 15% in size
# reported conditions: PGC/ERR reporter cell line, luciferase ONE-Glo, 18 h; series mostly up to 92.4 µM
Inconclusive results are not listed. Active and inactive are the calls of the source. The call rests on the fitted dose curve; in most records, active means well fitted activation curve with a large enough effect in the repeat runs; inconclusive means weak or mixed curves, or effect the other way; inactive means no such curve, though single readings can be large or run the other way.
measured attribute: outcome

compound	outcome
Cc1cccc(C)c1	inactive
O=S1(=O)OC(c2ccc(O)cc2)(c2ccc(O)cc2)c2ccccc21	inactive
CC1(C)O[C@@H]2C[C@H]3[C@@H]4CCC5=CC(=O)C=C[C@]5(C)[C@@]4(F)[C@@H](O)C[C@]3(C)[C@]2(C(=O)CO)O1	inactive
CN1CCc2cccc3c2[C@H]1Cc1ccc(O)c(O)c1-3	inactive

// next entry
Input: Please look up its outcome: C1CCC(C(CC2CCCCN2)C2CCCCC2)CC1 (stereo not given)
Output: inactive

* * *

# target system: Peroxisome proliferator-activated receptor gamma (Homo sapiens) (UniProt P37231)
# Sequence (P37231 whole entry, looked up): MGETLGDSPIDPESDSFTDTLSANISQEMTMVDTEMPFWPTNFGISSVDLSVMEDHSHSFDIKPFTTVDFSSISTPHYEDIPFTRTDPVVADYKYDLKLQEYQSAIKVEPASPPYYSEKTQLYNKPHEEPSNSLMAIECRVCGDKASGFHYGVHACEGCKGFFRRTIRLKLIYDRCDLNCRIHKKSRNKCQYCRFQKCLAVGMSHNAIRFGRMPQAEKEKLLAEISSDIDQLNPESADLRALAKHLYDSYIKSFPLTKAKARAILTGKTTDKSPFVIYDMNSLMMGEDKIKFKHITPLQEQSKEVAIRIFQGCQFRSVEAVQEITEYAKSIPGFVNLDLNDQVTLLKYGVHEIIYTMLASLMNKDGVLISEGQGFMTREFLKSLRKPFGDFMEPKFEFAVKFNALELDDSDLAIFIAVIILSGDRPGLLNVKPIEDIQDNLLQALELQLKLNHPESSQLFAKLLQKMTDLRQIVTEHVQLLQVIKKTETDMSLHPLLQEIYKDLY
# method: qHTS assay to identify small molecule antagonists of the peroxisome proliferator-activated receptor gamma (PPARg) signaling pathway (AID 743191); also: nearly all actives have a fitted effect of over 30% in size
# reported conditions: HEK293H PPARg-UAS-bla, beta-lactamase ratio, antagonist, 17 h; series mostly up to 62.6 µM
# Source text: U.S. Tox21 Program National Center for Advancing Translational Sciences [NCATS] NIH Chemical Genomics Center [NCGC] U.S. Environmental Protection Agency [EPA] National Institutes of Environmental Health Sciences [NIEHS] National Toxicology Program [NTP] U.S. Food and Drug Administration [FDA] […]
Results filed as inconclusive are left out. Active and inactive are the calls of the source. Calls come from the whole dose curve.
Your answer must be one of the following: True = active, False = inactive

// known answers, use as guide
compound	target system	assigned label
CCOc1ccc(NC(C)=O)cc1	Peroxisome proliferator-activated receptor gamma (Homo sapiens) (UniProt P37231)	False
CN(C)CCOC(C)(c1ccccc1)c1ccccn1 (stereo not given)	Peroxisome proliferator-activated receptor gamma (Homo sapiens) (UniProt P37231)	False
Cc1cccc(C)c1	Peroxisome proliferator-activated receptor gamma (Homo sapiens) (UniProt P37231)	False
CN(C)C(=O)Nc1ccc(Cl)c(Cl)c1	Peroxisome proliferator-activated receptor gamma (Homo sapiens) (UniProt P37231)	False
NS(=O)(=O)O	Peroxisome proliferator-activated receptor gamma (Homo sapiens) (UniProt P37231)	False

Input: Please share the test call associated with NC(=O)c1cccnc1 .
Output: False

Input: Please share the test call associated with CN1CCC[C@H]1c1cccnc1 .
Output: False

Input: Please share the test call associated with NS(=O)(=O)c1cc2c(cc1Cl)NCNS2(=O)=O .
Output: False

Input: Please share the test call associated with CS(=O)(=O)OCCCCOS(C)(=O)=O .
Output: False

Input: Please share the test call associated with NC1CCCCC1 .
Output: False

Input: Please share the test call associated with CCCCCCc1ccc(O)cc1O .
Output: True

Input: Please share the test call associated with O=c1[nH]cc(F)c(=O)[nH]1 .
Output: False

Input: Please share the test call associated with CC(O)(P(=O)(O)O)P(=O)(O)O .
Output: False

Input: Please share the test call associated with CCCCNC(=O)NS(=O)(=O)c1ccc(C)cc1 .
Output: False

Input: Please share the test call associated with CC1(C)S[C@@H]2[C@H](NC(=O)[C@H](N)c3ccccc3)C(=O)N2[C@H]1C(=O)O .
Output: False

* * *

# method: A CellTox Green Cytotoxicity Assay to monitor cytotoxicity in HEK293 cells - 8 hour (AID 1224884); also: nearly all actives have a fitted effect of over 35% in size
# reported conditions: CellTox Green fluorescence; series mostly up to 76.8 µM
Inconclusive results are not listed. The source made the active and inactive calls. Calls come from the whole dose curve; as a rule, active = well fitted activation curve with a large enough effect in the repeat runs; inconclusive = weak or mixed curves; inactive = flat fitted curve, though single readings scatter.
Your answer must be one of the following: TRUE for active, FALSE for inactive

// known answers, use as guide
compound	assigned label
Cc1ccc(S(=O)(=O)O)cc1	FALSE
COc1ccc(CN(CCN(C)C)c2ccccn2)cc1	FALSE
O=C(Nc1ncc([N+](=O)[O-])s1)c1cccs1	FALSE
C=C1CC[C@H](O)C/C1=C\C=C1/CCC[C@]2(C)[C@@H]([C@H](C)CCCC(C)C)CC[C@@H]12	FALSE
CCCCCCCCCCCC[N+](C)(C)Cc1ccccc1	TRUE

Input: Please share the test call associated with Nc1ccc(O)c([N+](=O)[O-])c1 .
Output: FALSE

Input: Please share the test call associated with CS(=O)(=O)OCCCCOS(C)(=O)=O .
Output: FALSE

Input: Please share the test call associated with CC(C)NCC(O)c1ccc(O)c(O)c1 (stereo not drawn) .
Output: FALSE

Input: Please share the test call associated with CCCCCCc1ccc(O)cc1O .
Output: FALSE

Input: Please share the test call associated with Oc1ccccc1 .
Output: FALSE

Input: Please share the test call associated with NS(=O)(=O)c1cc2c(cc1Cl)NCNS2(=O)=O .
Output: FALSE

Input: Please share the test call associated with NS(=O)(=O)O .
Output: FALSE

Input: Please share the test call associated with CC(=O)Nc1c(I)c(NC(C)=O)c(I)c(C(=O)O)c1I .
Output: FALSE

* * *

# method: qHTS RealTime-Glo MT Cell Viability Assay in HepG2 cells - 40 hour (AID 1224870); also: % is scaled to controls: 0 for no effect and ±100 for the full control effect; nearly all actives have a fitted effect of over 50% in size
# reported conditions: RealTime-Glo luminescence; series mostly up to 76.8 µM
# Excerpt: National Center for Advancing Translational Sciences [NCATS] NIH Chemical Genomics Center [NCGC] U.S. Environmental Protection Agency [EPA] National Institutes of Environmental Health Sciences [NIEHS] National Toxicology Program [NTP] U.S. Food and Drug Administration [FDA] Measure of cell viability is critical in the cell-base assay. Analysis of cell viability is necessary for the characterization of cell responses to cytotoxic drugs and environmental stress. […]
Results filed as inconclusive are left out. Activity calls are given as the source filed them. The call rests on the fitted dose curve; in most records, active means well fitted cell-killing curve with a large enough effect in the repeat runs; inconclusive means weak or mixed curves, or effect the other way; inactive means flat fitted curve, though single readings scatter.
Your answer must be one of the following: Y = active, N = inactive

// known answers, use as guide
compound	assigned label
Cc1ncc([N+](=O)[O-])n1C	N
O=C(O)CC(O)C(=O)O (configuration not stated)	N
CC(=O)CC(c1ccccc1)c1c(O)c2ccccc2oc1=O (configuration not stated)	N

Input: Please share the test call associated with CC1(C)O[C@@H]2C[C@H]3[C@@H]4CCC5=CC(=O)C=C[C@]5(C)[C@@]4(F)[C@@H](O)C[C@]3(C)[C@]2(C(=O)CO)O1 .
Output: N

Input: Please share the test call associated with NC(CO)(CO)CO .
Output: N

Input: Please share the test call associated with CN(C)CCOC(c1ccccc1)c1ccccc1 .
Output: N

Input: Please share the test call associated with C[C@](N)(Cc1ccc(O)c(O)c1)C(=O)O .
Output: N

Input: Please share the test call associated with CCc1nc(N)nc(N)c1-c1ccc(Cl)cc1 .
Output: N

Input: Please share the test call associated with C1=CC2C3C=CC(C3)C2C1 (configuration not stated) .
Output: N

Input: Please share the test call associated with Cc1ccc(S(=O)(=O)O)cc1 .
Output: N

Input: Please share the test call associated with CCCCNC(=O)NS(=O)(=O)c1ccc(C)cc1 .
Output: N

Input: Please share the test call associated with Nc1ccc([N+](=O)[O-])cc1O .
Output: N

Input: Please share the test call associated with O=C1c2c(O)cccc2Cc2cccc(O)c21 .
Output: N

Values were extracted from PubChem BioAssay (Tox21).
